Each item that follows carries a reported Kd.
Molecular target: T1, human GPC3 (human, UniProt P51654 25-563)
T1 construct: range 25-563; soluble analyte; also called soluble human GPC3; glypican 3
T1 sequence (P51654 25-563 limits assumed): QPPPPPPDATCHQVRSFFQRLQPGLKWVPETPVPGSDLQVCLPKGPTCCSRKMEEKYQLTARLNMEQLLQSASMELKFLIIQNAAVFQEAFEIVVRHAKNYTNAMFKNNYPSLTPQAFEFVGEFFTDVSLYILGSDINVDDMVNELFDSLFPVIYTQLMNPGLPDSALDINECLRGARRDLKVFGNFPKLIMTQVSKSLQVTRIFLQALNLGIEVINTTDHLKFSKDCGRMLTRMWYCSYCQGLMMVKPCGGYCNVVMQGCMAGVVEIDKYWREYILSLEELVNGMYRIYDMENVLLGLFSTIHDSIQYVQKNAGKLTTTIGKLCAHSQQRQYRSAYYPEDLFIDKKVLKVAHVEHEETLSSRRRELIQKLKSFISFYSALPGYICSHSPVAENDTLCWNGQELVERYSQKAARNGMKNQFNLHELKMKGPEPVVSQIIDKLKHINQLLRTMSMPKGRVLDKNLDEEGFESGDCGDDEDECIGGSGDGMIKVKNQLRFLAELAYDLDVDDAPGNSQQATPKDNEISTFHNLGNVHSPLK
Experiment: SPR
Quantity: Kd

[
  {
    "Binder": "H0610-G1dh/none-Hi-Kn010G3/L0064-k0 (antibody, V domains shown, one-arm) VH: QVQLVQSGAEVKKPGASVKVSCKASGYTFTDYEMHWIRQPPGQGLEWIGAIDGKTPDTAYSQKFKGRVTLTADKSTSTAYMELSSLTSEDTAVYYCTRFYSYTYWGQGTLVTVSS VL: DIVMTQSPLSLPVTPGEPASISCRSSQSLVHSNRFTYLHWYQQKPGQAPRLLIYKVSNRFSGVPDRFSGSGSGTDFTLKISRVEAEDVGVYYCGQGTQVPYTFGQGTKLEIK",
    "Quantity": "Kd",
    "Observed Result": "3370 pM"
  },
  {
    "Binder": "H0610-G1dh/none-Hi-Kn010G3/L0262-k0 (antibody, V domains shown, one-arm) VH: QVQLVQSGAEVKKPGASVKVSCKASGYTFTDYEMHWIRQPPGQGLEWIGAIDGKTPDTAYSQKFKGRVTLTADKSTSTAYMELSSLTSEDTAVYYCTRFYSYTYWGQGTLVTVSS VL: DIVMTQSPLSLPVTPGEPASISCRSSQPPVHSNRNTYLHWYQQKPGQAPRLLIYKVSNRFSGVPDRFSGSGSGTDFTLKISRVEAEDVGVYYCAQGTQVPYTFGQGTKLEIK",
    "Quantity": "Kd",
    "Observed Result": "211 pM"
  },
  {
    "Binder": "GCH094-G1dh/none-Hi-Kn010G3/L0246-k0 (antibody, V domains shown, one-arm) VH: QVQLVQSGAEVKKPGASVTVSCKASGYTFTDYEMHWVRQAPGEGLEWMGAIDGETPDTAYSEKFKGRVTLTADKSTSTAYMELSSLTSEDTAVYYCTRFYSYTYWGQGTLVTVSS VL: DIVMTQSPLSLPVTPGEPASISCRSSQSPVHSNRNTYIQWYQQKPGQAPRLLIYKVSNRFSGVPDRFSGSGSGTDFTLKISRVEAEDVGVYYCSQGTQVPYTFGQGTKLEIK",
    "Quantity": "Kd",
    "Observed Result": "4.12 pM"
  }
]
